# Test system: SKBR-3
# Experimental Protocol: Growth inhibition by MTT, SKBR-3 breast cancer cells
# Format: cell-based, Human
# Measurement Setup: Homo sapiens, SK-BR-3, 72 h, read-out: IC50 SKBR-3
# Lookup of reported pIC50 keyed by entry
Worth noting: pIC50 values are minus log10 of concentrations stated in mol/L.

COc1cccc2c1C(=O)c1c(O)c3c(c(O)c1C2=O)C[C@@](O)(C(C)=O)C[C@@H]3O[C@H]1C[C@H](N)[C@H](O)[C@H](C)O1 : 7.21

Below: the item to evaluate.
The reported SKBR-3 pIC50 of CN1C(=O)/C(=C2/C(=O)Nc3ccccc32)c2ccccc21 is 5.66

----------
# Test system: PC-3
# Experimental Protocol: Growth inhibition by MTT, PC-3 prostate cancer cells
# Assay type: cell-based, Human
# Measurement Setup: Homo sapiens, PC-3; MTT, 72 h exposure; read-out: IC50 PC-3
# Protocol: Growth inhibitory effects of NATURA and other agents on human cancer cells were determined by standard MTT (3-(4,5-dimethylthiazol-2-yl)-2,5-diphenyltetrazolium bromide Test) as described previously. […] 200 μl of solution of 0.04 N HCl-isopropanol was added to each well to dissolve the black fromazan participates, and absorbance at 540 nm was measured on a 96-Well.
Observable: IC50 (µM)
The response must be a number in µM with no trailing unit.

Worked examples follow.
CC(C)(C)NC(=O)[C@H]1CC[C@H]2[C@@H]3CC[C@H]4NC(=O)C=C[C@]4(C)[C@H]3CC[C@]12C : 134
CC(O)(CS(=O)(=O)c1ccc(F)cc1)C(=O)Nc1ccc(C#N)c(C(F)(F)F)c1 (stereo not shown) : 120
CC(=O)OC1COC(N2C(=O)/C(=C3/C(=O)Nc4ccccc43)c3ccccc32)C(OC(C)=O)C1OC(C)=O (stereo not shown) : 2.41

Below: the item to evaluate.
Entry under test: CN1C(=O)/C(=C2/C(=O)Nc3ccccc32)c2ccccc21 . Its IC50 was 3.26

----------
# Test system: LNCaP
# Experimental Protocol: Growth inhibition by MTT, LNCaP prostate cancer cells
# Assay type: cell-based, Human
# Measurement Setup: MTT, 72 h exposure (Table 3); read-out: IC50 LNCaP
Observable: IC50 (µM)
The response must be a number in µM with no trailing unit.

CS(=O)(=O)Nc1ccc([N+](=O)[O-])cc1OC1CCCCC1 [NS389] : 65.5

Entry under test: CC1=C(/C=C/C(C)=C/C=C/C(C)=C/C(=O)O)C(C)(C)CCC1 [Retinoid Acid] . Its IC50 was 16

----------
# Test system: human cancer cell lines
# Experimental Protocol: Growth inhibition by MTT, all tested human cancer cell lines
# Format: cell-based
# Measurement Setup: Homo sapiens, 72 h, read-out: IC50, growth inhibitory effects on all tested human cancer cell lines, range over breast, colon, prostate lines, three day exposure
# Lookup of reported IC50 keyed by entry

CC(=O)OC1COC(N2C(=O)/C(=C3/C(=O)Nc4ccccc43)c3ccccc32)C(OC(C)=O)C1OC(C)=O (centres unmarked) : 1.64 to 6.92 µM

Below: the item to evaluate.
The reported human cancer cell lines IC50 of CN1C(=O)/C(=C2/C(=O)Nc3ccccc32)c2ccccc21 is 2.15 to 8.31 µM

----------
# Lookup of reported pIC50 keyed by entry
# Tested on: LNCaP
# Experimental Protocol: Growth inhibition by MTT, LNCaP prostate cancer cells
# Assay type: cell-based, Human
# Measurement Setup: Homo sapiens, LNCaP; MTT, 72 h exposure (Table 3); read-out: IC50 LNCaP
# Method: Growth inhibitory effects of NATURA and other agents on human cancer cells were determined by standard MTT (3-(4,5-dimethylthiazol-2-yl)-2,5-diphenyltetrazolium bromide Test) as described previously. […] The cells in the plates were then exposed to series of dilution of indicated agent. […] 200 μl of solution of 0.04 N HCl-isopropanol was added to each well to dissolve the black fromazan participates, and absorbance at 540 nm was measured on a 96-Well. […]
Worth noting: pIC50 values are minus log10 of concentrations stated in mol/L.

CC(C)(C)NC(=O)[C@H]1CC[C@H]2[C@@H]3CC[C@H]4NC(=O)C=C[C@]4(C)[C@H]3CC[C@]12C : 4.39

Entry under test: CC(=O)OC1COC(N2C(=O)/C(=C3/C(=O)Nc4ccccc43)c3ccccc32)C(OC(C)=O)C1OC(C)=O (stereo not shown) . Its pIC50 was 5.76

Entry under test: CC(O)(CS(=O)(=O)c1ccc(F)cc1)C(=O)Nc1ccc(C#N)c(C(F)(F)F)c1 (stereo not shown) . Its pIC50 was 4.24

Entry under test: CN1C(=O)/C(=C2/C(=O)Nc3ccccc32)c2ccccc21 . Its pIC50 was 5.63
